- targetOrSystem: HLA-A*69:01
- assay: IEDB peptide-MHC binding, purified MHC/direct/fluorescence; filed as Kd, often an IC50 or EC50 that approximates it; bounds were set here for any values at or beyond the usual limits of such assays
- condition: source organism: Escherichia coli
measurementKind: pKd
Bear in mind: pKd is minus log10 of a mol/L concentration; give just that figure.

So, LMQWWSDYV ? Its pKd was 8.32

* * *

- targetOrSystem: HLA-A*01:01
- assay: IEDB peptide-MHC binding, purified MHC/direct/fluorescence; filed as Kd, often an IC50 or EC50 that approximates it; bounds were set here for any values at or beyond the usual limits of such assays
- condition: source organism: Yersinia pestis
measurementKind: Kd

So, SDDQLRLLK ? Its Kd was ≥ 20 µM
